// provenance: patent US20240400577A1

tested-target: DDR1 (Homo sapiens, UniProt Q08345)
Construct: purchased Nanosyn (contract screening)
Sequence (Q08345 19-913): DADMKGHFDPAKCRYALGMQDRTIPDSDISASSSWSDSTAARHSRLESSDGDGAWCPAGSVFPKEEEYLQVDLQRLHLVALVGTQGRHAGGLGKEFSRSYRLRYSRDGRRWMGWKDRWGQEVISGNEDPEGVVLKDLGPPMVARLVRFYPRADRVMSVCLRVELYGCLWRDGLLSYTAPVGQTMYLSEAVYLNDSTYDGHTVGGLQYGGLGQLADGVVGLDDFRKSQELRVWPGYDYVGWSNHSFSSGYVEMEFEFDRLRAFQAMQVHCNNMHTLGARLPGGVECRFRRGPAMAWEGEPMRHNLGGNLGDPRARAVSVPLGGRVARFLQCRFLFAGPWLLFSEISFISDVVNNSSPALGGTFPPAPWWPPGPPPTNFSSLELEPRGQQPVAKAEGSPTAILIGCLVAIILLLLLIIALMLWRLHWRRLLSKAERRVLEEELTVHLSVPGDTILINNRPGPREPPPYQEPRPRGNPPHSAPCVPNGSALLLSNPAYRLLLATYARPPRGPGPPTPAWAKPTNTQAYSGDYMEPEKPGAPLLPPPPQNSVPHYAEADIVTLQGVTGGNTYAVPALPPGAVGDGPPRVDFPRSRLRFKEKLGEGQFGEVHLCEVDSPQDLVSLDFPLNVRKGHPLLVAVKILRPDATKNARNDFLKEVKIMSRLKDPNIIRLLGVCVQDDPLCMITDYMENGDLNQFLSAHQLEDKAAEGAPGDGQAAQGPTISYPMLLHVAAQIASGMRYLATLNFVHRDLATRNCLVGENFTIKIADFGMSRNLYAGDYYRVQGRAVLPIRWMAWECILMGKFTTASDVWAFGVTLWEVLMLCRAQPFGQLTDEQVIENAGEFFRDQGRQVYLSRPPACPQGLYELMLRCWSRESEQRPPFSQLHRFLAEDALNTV
test: Kinase panel enzymatic inhibition assay (Nanosyn)
Type: biochemical
conditions: compound 5 μM; ATP at Km; 30-minute pre-incubation
inhibition at 5 µM for assorted molecules

For orientation, consider the following solved cases.
{"molecule": "Cc1ccc(NC(=O)c2cc(S(C)(=O)=O)n(-c3ccc(F)cc3)n2)cc1C#Cc1cnc2cccnn12", "inhibition at 5 µM": "≥ 95%"}
{"molecule": "Cc1ccc(NC(=O)c2cc(S(C)(=O)=O)n(-c3ccc(F)cc3)n2)cc1Nc1nccc(-c2cccnc2N)n1", "inhibition at 5 µM": "≥ 95%"}
{"molecule": "CCOC(=O)Nc1cn2nc(Nc3cc(NC(=O)c4cc([S+](C)[O-])n(-c5ccc(F)cc5)n4)ccc3C)ccc2n1 (stereo not shown)", "inhibition at 5 µM": "≥ 95%"}

Consider `CNC(=O)c1cc(Oc2ccc(NC(=O)c3cc(S(C)(=O)=O)n(-c4ccc(F)cc4)n3)c(F)c2)ccn1` . Its measured inhibition at 5 µM is 80 to 89%

Consider `Cc1ccc(NC(=O)c2cc(S(C)(=O)=O)n(-c3ccc(F)cc3)n2)cc1-c1cc(OCCO)nc(N2CCOCC2)c1` . Its measured inhibition at 5 µM is ≥ 95%

Consider `CCOC(=O)Nc1cn2nc(Nc3cc(NC(=O)c4cc(S(C)(=O)=O)n(-c5ccc(F)cc5)n4)ccc3C)ccc2n1` . Its measured inhibition at 5 µM is ≥ 95%

Consider Cc1ccc(NC(=O)c2cc([S+](C)[O-])n(-c3ccc(F)cc3)n2)cc1-c1cc(N2CCOCC2)c(=O)n(C)c1 (stereo not shown) . Its measured inhibition at 5 µM is < 79%

----------
inhibition at 5 µM for assorted compounds
tested-target: MAP4K2 (Homo sapiens)
Construct: purchased Nanosyn (contract screening)
Sequence (Q12851 whole entry): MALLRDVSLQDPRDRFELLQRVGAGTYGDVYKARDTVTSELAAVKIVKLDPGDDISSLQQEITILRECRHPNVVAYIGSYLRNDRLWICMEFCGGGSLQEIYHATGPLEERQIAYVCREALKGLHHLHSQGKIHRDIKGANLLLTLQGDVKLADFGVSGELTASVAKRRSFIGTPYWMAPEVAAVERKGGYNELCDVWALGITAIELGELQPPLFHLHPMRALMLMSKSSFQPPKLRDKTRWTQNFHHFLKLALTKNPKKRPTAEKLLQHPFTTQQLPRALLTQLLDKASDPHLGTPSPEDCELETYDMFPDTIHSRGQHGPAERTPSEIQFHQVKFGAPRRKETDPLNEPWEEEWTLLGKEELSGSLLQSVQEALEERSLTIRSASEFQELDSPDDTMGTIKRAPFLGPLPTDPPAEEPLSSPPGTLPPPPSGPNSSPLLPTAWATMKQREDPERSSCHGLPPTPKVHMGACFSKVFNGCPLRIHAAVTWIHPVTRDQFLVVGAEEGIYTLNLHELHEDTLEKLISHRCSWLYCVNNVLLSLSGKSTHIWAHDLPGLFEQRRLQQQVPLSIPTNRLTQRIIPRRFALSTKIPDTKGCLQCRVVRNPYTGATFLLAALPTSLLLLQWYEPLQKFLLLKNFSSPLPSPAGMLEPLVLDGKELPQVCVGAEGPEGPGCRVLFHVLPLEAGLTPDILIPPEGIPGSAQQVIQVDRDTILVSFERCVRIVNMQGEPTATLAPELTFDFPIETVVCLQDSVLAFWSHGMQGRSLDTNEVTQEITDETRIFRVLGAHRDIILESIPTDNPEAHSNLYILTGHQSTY
test: Kinase panel enzymatic inhibition assay (Nanosyn)
Assay type: biochemical
conditions: compound 5 μM; ATP at Km; 30-minute pre-incubation

{"compound": "CSc1cc(C(=O)Nc2cc(Oc3ccnc(C(=O)NC4CNC4)c3)ccc2F)nn1-c1ccc(F)cc1", "value": "80 to 89%"}

Consider Cc1ccc(NC(=O)c2cc([S+](C)[O-])n(-c3ccc(F)cc3)n2)cc1C#Cc1cnc2cccnn12 (stereo not shown) . Its measured inhibition at 5 µM is < 79%

Consider `Cc1ccc(NC(=O)c2cc(S(C)(=O)=O)n(-c3ccc(F)cc3)n2)cc1Nc1nccc(-c2cccnc2N)n1` . Its measured inhibition at 5 µM is < 79%

Consider `Cc1ccc(NC(=O)c2cc(S(C)(=O)=O)n(-c3ccc(F)cc3)n2)cc1-c1cc(N2CCOCC2)c(=O)n(C)c1` . Its measured inhibition at 5 µM is < 79%

----------
pIC50 for assorted molecules
tested-target: UniProt P29597
Sequence (P29597 whole entry): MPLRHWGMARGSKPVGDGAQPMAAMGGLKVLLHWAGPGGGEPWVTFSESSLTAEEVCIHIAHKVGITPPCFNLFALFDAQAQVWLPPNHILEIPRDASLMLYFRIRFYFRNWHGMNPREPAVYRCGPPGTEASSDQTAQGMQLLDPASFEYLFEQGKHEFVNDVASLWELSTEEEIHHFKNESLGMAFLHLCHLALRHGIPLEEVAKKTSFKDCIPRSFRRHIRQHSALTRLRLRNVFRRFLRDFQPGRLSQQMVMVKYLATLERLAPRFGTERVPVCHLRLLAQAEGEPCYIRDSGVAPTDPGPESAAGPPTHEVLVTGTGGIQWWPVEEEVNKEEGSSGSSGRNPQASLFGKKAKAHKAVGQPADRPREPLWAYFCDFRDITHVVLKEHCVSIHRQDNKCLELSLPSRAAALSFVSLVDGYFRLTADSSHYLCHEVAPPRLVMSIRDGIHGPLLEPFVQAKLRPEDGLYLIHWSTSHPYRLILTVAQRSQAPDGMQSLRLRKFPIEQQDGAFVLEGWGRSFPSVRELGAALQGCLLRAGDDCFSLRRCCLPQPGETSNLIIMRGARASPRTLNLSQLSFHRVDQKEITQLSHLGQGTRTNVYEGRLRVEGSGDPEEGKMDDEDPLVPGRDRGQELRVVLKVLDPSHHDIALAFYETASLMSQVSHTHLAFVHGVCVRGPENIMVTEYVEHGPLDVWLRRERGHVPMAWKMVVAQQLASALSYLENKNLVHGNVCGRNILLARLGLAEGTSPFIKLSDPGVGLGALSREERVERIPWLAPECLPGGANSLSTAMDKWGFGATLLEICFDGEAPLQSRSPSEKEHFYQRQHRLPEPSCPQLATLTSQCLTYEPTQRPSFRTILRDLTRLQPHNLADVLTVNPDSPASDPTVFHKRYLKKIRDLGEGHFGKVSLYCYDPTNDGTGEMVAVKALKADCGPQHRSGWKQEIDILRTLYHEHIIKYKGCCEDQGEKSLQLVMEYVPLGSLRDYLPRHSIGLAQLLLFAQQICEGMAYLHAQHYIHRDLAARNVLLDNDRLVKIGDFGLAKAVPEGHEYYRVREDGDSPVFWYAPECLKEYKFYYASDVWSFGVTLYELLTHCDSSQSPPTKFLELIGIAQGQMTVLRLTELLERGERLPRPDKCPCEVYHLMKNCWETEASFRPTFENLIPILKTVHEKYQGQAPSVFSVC
pIC50: −log10 of the molar value.

{"structure": "COc1cc2nccc(Oc3ccc(NC(=O)c4cc(S(C)(=O)=O)n(-c5ccc(F)cc5)n4)cc3)c2cc1OC", "pIC50": "5.00 to 6.00"}

Now turn to the next molecule.
Consider `COc1cc2nccc(Oc3ccc(NC(=O)c4cc(S(C)(=O)=O)n(-c5ccc(F)cc5)n4)c(F)c3)c2cc1OC` . Its measured pIC50 is ≤ 5.00

----------
tested-target: PKCb1 (Homo sapiens)
Construct: Nanosyn (contract laboratory that ran the panel)
Sequence (P05771 whole entry): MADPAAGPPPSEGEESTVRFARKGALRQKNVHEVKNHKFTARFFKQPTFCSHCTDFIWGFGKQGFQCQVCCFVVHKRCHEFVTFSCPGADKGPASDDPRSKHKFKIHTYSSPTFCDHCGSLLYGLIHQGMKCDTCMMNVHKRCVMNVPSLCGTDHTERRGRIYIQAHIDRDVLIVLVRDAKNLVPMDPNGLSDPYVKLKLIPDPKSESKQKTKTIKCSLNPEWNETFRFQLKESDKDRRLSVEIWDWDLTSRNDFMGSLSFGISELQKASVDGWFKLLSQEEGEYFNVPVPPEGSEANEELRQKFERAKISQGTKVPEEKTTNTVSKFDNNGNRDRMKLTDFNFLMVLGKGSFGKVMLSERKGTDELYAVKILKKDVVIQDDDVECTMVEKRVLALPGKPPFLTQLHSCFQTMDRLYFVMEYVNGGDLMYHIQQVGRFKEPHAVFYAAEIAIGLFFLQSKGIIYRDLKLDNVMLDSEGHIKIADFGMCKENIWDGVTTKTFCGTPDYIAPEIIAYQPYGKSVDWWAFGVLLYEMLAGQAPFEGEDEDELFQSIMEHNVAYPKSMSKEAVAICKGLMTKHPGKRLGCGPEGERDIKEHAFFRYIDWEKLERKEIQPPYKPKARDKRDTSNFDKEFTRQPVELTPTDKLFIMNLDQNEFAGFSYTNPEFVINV
test: Kinase panel enzymatic inhibition assay (Nanosyn)
Format: biochemical
conditions: compound 5 μM; ATP at Km; 30-minute pre-incubation
assay-readout: inhibition at 5 µM

{"molecule": "Cc1ccc(NC(=O)c2cc(S(C)(=O)=O)n(-c3ccc(F)cc3)n2)cc1Nc1ccc2ncn(C)c(=O)c2c1", "inhibition at 5 µM": "< 79%"}
{"molecule": "Cc1ccc(NC(=O)c2cc([S+](C)[O-])n(-c3ccc(F)cc3)n2)cc1-c1cc(OCCO)nc(N2CCOCC2)c1 (centres unmarked)", "inhibition at 5 µM": "< 79%"}

Consider `Cc1ccc(NC(=O)c2cc(S(C)(=O)=O)n(-c3ccc(F)cc3)n2)cc1-c1cc(OCCO)nc(N2CCOCC2)c1` . Its measured inhibition at 5 µM is < 79%

Consider `Cc1ccc(NC(=O)c2cc(S(C)(=O)=O)n(-c3ccc(F)cc3)n2)cc1C#Cc1cnc2cccnn12` . Its measured inhibition at 5 µM is < 79%

Consider Cc1ccc(NC(=O)c2cc([S+](C)[O-])n(-c3ccc(F)cc3)n2)cc1Nc1ccc2ncn(C)c(=O)c2c1 (centres unmarked) . Its measured inhibition at 5 µM is < 79%

Consider `Cc1ccc(NC(=O)c2cc(S(C)(=O)=O)n(-c3ccc(F)cc3)n2)cc1-c1cc(N2CCOCC2)c(=O)n(C)c1` . Its measured inhibition at 5 µM is < 79%

----------
tested-target: LYNa (Homo sapiens, UniProt P07948)
Construct: purchased Nanosyn (contract screening)
Sequence (P07948 whole entry): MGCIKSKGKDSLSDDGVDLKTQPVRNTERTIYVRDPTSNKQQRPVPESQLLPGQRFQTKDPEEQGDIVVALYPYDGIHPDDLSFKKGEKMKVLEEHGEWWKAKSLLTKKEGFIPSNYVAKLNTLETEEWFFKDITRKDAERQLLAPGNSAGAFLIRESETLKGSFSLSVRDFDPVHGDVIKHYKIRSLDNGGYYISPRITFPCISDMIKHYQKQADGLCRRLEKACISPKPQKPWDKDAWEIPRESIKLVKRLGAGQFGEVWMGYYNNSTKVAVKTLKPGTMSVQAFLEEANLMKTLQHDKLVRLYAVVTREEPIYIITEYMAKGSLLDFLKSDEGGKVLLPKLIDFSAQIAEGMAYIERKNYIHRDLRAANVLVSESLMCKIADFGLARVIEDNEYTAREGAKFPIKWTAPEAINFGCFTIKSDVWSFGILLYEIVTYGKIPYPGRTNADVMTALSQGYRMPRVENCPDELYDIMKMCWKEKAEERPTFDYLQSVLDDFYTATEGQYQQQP
test: Kinase panel enzymatic inhibition assay (Nanosyn)
Assay type: biochemical
conditions: compound 5 μM; ATP at Km; 30-minute pre-incubation
inhibition at 5 µM for assorted compounds

{"compound": "Cc1ccc(NC(=O)c2cc(S(C)(=O)=O)n(-c3ccc(F)cc3)n2)cc1Nc1ccc2ncn(C)c(=O)c2c1 [Ex4]", "inhibition at 5 µM": "< 79%"}
{"compound": "Cc1ccc(NC(=O)c2cc(S(C)(=O)=O)n(-c3ccc(F)cc3)n2)cc1C#Cc1cnc2cccnn12 [Ex14]", "inhibition at 5 µM": "≥ 95%"}
{"compound": "Cc1ccc(NC(=O)c2cc(S(C)(=O)=O)n(-c3ccc(F)cc3)n2)cc1-c1cc(N2CCOCC2)c(=O)n(C)c1 [Ex12]", "inhibition at 5 µM": "< 79%"}
{"compound": "CNC(=O)c1cc(Oc2ccc(NC(=O)c3cc(S(C)(=O)=O)n(-c4ccc(F)cc4)n3)c(F)c2)ccn1 [Ex17]", "inhibition at 5 µM": "< 79%"}
{"compound": "CCOC(=O)Nc1cn2nc(Nc3cc(NC(=O)c4cc([S+](C)[O-])n(-c5ccc(F)cc5)n4)ccc3C)ccc2n1 (centres unmarked) [Ex18]", "inhibition at 5 µM": "≥ 95%"}

# Cc1ccc(NC(=O)c2cc([S+](C)[O-])n(-c3ccc(F)cc3)n2)cc1-c1cc(OCCO)nc(N2CCOCC2)c1 (centres unmarked) [Ex10] with LYNa (Homo sapiens, UniProt P07948): inhibition at 5 µM is < 79%

# CSc1cc(C(=O)Nc2cc(Oc3ccnc(C(=O)NC4CNC4)c3)ccc2F)nn1-c1ccc(F)cc1 [Ex8] with LYNa (Homo sapiens, UniProt P07948): inhibition at 5 µM is < 79%

# Cc1ccc(NC(=O)c2cc(S(C)(=O)=O)n(-c3ccc(F)cc3)n2)cc1Nc1nccc(-c2cccnc2N)n1 [Ex13] with LYNa (Homo sapiens, UniProt P07948): inhibition at 5 µM is ≥ 95%

# CCOC(=O)Nc1cn2nc(Nc3cc(NC(=O)c4cc(S(C)(=O)=O)n(-c5ccc(F)cc5)n4)ccc3C)ccc2n1 [Ex15] with LYNa (Homo sapiens, UniProt P07948): inhibition at 5 µM is ≥ 95%

# Cc1ccc(NC(=O)c2cc([S+](C)[O-])n(-c3ccc(F)cc3)n2)cc1Nc1ccc2ncn(C)c(=O)c2c1 (centres unmarked) [Ex5] with LYNa (Homo sapiens, UniProt P07948): inhibition at 5 µM is ≥ 95%

# Cc1ccc(NC(=O)c2cc(S(C)(=O)=O)n(-c3ccc(F)cc3)n2)cc1-c1cc(OCCO)nc(N2CCOCC2)c1 [Ex9] with LYNa (Homo sapiens, UniProt P07948): inhibition at 5 µM is < 79%

# Cc1ccc(NC(=O)c2cc([S+](C)[O-])n(-c3ccc(F)cc3)n2)cc1C#Cc1cnc2cccnn12 (centres unmarked) [Ex6] with LYNa (Homo sapiens, UniProt P07948): inhibition at 5 µM is 90 to 94%

# Cc1ccc(NC(=O)c2cc([S+](C)[O-])n(-c3ccc(F)cc3)n2)cc1-c1cc(N2CCOCC2)c(=O)n(C)c1 (centres unmarked) [Ex11] with LYNa (Homo sapiens, UniProt P07948): inhibition at 5 µM is < 79%

# CNC(=O)c1cc(Oc2ccc(F)c(NC(=O)c3cc([S+](C)[O-])n(-c4ccc(F)cc4)n3)c2)ccn1 (centres unmarked) [Ex7] with LYNa (Homo sapiens, UniProt P07948): inhibition at 5 µM is < 79%

----------
tested-target: HCK (Homo sapiens)
Construct: purchased Nanosyn (contract screening)
Sequence (P08631 whole entry): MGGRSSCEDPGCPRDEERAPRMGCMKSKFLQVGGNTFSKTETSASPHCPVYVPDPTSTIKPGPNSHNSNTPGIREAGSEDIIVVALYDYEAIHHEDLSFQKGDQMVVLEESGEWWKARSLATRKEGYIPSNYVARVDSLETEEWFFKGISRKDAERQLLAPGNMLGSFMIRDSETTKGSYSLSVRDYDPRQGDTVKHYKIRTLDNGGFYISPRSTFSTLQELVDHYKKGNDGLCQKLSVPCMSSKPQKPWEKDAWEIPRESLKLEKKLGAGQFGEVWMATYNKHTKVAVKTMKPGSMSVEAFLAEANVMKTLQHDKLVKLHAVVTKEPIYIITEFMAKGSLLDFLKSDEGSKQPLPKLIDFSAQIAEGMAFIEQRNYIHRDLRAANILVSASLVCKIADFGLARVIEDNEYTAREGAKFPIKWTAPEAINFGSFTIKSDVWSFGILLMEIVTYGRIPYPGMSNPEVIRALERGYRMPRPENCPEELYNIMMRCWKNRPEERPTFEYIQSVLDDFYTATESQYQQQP
test: Kinase panel enzymatic inhibition assay (Nanosyn)
Type: biochemical
conditions: compound 5 μM; ATP at Km; 30-minute pre-incubation
inhibition at 5 µM for assorted molecules

{"molecule": "Cc1ccc(NC(=O)c2cc([S+](C)[O-])n(-c3ccc(F)cc3)n2)cc1Nc1ccc2ncn(C)c(=O)c2c1 (stereo not shown)", "value": "< 79%"}
{"molecule": "Cc1ccc(NC(=O)c2cc([S+](C)[O-])n(-c3ccc(F)cc3)n2)cc1-c1cc(OCCO)nc(N2CCOCC2)c1 (stereo not shown)", "value": "< 79%"}
{"molecule": "Cc1ccc(NC(=O)c2cc(S(C)(=O)=O)n(-c3ccc(F)cc3)n2)cc1C#Cc1cnc2cccnn12", "value": "90 to 94%"}
{"molecule": "CNC(=O)c1cc(Oc2ccc(NC(=O)c3cc(S(C)(=O)=O)n(-c4ccc(F)cc4)n3)c(F)c2)ccn1", "value": "< 79%"}
{"molecule": "Cc1ccc(NC(=O)c2cc(S(C)(=O)=O)n(-c3ccc(F)cc3)n2)cc1-c1cc(N2CCOCC2)c(=O)n(C)c1", "value": "< 79%"}
{"molecule": "CSc1cc(C(=O)Nc2cc(Oc3ccnc(C(=O)NC4CNC4)c3)ccc2F)nn1-c1ccc(F)cc1", "value": "< 79%"}
{"molecule": "Cc1ccc(NC(=O)c2cc([S+](C)[O-])n(-c3ccc(F)cc3)n2)cc1C#Cc1cnc2cccnn12 (stereo not shown)", "value": "≥ 95%"}
{"molecule": "CCOC(=O)Nc1cn2nc(Nc3cc(NC(=O)c4cc(S(C)(=O)=O)n(-c5ccc(F)cc5)n4)ccc3C)ccc2n1", "value": "80 to 89%"}

Consider `Cc1ccc(NC(=O)c2cc(S(C)(=O)=O)n(-c3ccc(F)cc3)n2)cc1Nc1nccc(-c2cccnc2N)n1` . Its measured inhibition at 5 µM is < 79%

Consider `Cc1ccc(NC(=O)c2cc(S(C)(=O)=O)n(-c3ccc(F)cc3)n2)cc1Nc1ccc2ncn(C)c(=O)c2c1` . Its measured inhibition at 5 µM is < 79%
